Recorded EC50 for the following compounds
Tested on: Human immunodeficiency virus 1
assay-procedure: Antiviral activity against HIV1 T13572 infected in human MT4 cells expressing LTR and EGFP assessed as inhibition of virus-induced cytopathic effect by fluorescence microscopic analysis
Type: functional, organism-based
measurement-context: Human immunodeficiency virus 1, T13572, MT4
endpoint: EC50 (nM)

>>> value_measured("Cc1cccc(C)c1OCC(=O)N[C@@H](Cc1ccccc1)[C@@H](O)C[C@H](Cc1ccccc1)NC(=O)[C@H](C(C)C)N1CCCNC1=O")
511
>>> value_measured("CC(C)CN(C[C@@H](O)[C@H](Cc1ccccc1)NC(=O)O[C@H]1CO[C@H]2OCC[C@H]21)S(=O)(=O)c1ccc(N)cc1")
234
>>> value_measured("CC(C)CN(C[C@@H](O)[C@H](Cc1ccccc1)NC(=O)O[C@H]1CO[C@H]2OCC[C@H]21)S(=O)(=O)c1ccc2sc(NC3CCN(C4CCCC4)CC3)nc2c1")
1.5

----------
Recorded pEC50 for the following compounds
Test system: Human immunodeficiency virus 1
assay-procedure: Antiviral activity against multidrug-resistant HIV1-G infected in phytohemagglutinin-activated human PBMC cells assessed as inhibition of virus-induced cytopathic effect measured after 7 days by MTT assay
Type: functional, organism-based
measurement-context: Human immunodeficiency virus 1, G, 168 h
pEC50: −log10 of the molar value.
endpoint: pEC50

>>> value_measured("COC(=O)N[C@H](C(=O)N[C@@H](Cc1ccccc1)[C@@H](O)CN(Cc1ccc(-c2ccccn2)cc1)NC(=O)[C@@H](NC(=O)OC)C(C)(C)C)C(C)(C)C [ATAZANAVIR]")
7.71
>>> value_measured("CC(C)(C)NC(=O)[C@@H]1C[C@@H]2CCCC[C@@H]2CN1C[C@@H](O)[C@H](Cc1ccccc1)NC(=O)[C@H](CC(N)=O)NC(=O)c1ccc2ccccc2n1")
7.48
>>> value_measured("CC(C)CN(C[C@@H](O)[C@H](Cc1ccccc1)NC(=O)O[C@H]1CO[C@H]2OCC[C@H]21)S(=O)(=O)c1ccc2c(c1)OCO2")
8.47
>>> value_measured("CC(C)CN(C[C@@H](O)[C@H](Cc1ccccc1)NC(=O)O[C@H]1CO[C@H]2OCC[C@H]21)S(=O)(=O)c1ccc(N)cc1")
8.15
>>> value_measured("COc1ccc(S(=O)(=O)N(CC(C)C)C[C@@H](O)[C@H](Cc2ccccc2)NC(=O)O[C@@H]2CO[C@@H]3O[C@H]4OCC[C@H]4[C@@H]32)cc1")
6.18

----------
Recorded selectivity ratio for the following molecules
assay-procedure: Selectivity index, ratio of CC50 for human MT2 cells to IC50 for antiviral activity against HIV1 LAI
Type: toxicity
measurement-context: read-out: Ratio CC50/EC50
endpoint: selectivity ratio

>>> value_measured("CC(C)CN(C[C@@H](O)[C@H](Cc1ccccc1)NC(=O)O[C@H]1CO[C@H]2OCC(F)(F)[C@H]21)S(=O)(=O)c1ccc(N)cc1")
12300
>>> value_measured("COc1ccc(S(=O)(=O)N(CC(C)C)C[C@@H](O)[C@H](Cc2ccccc2)NC(=O)O[C@H]2CO[C@H]3OCC(F)(F)[C@H]32)cc1")
21900

----------
assay-procedure: Lipophilicity, logD of the compound in Octanol/buffer by shake-flask method
Assay type: physicochemical
Recorded logD for the following compounds
endpoint: logD

>>> value_measured("COc1ccc(S(=O)(=O)N(CC(C)C)C[C@@H](O)[C@H](Cc2ccccc2)NC(=O)O[C@H]2CO[C@H]3OCC(F)(F)[C@H]32)cc1")
-0.29
>>> value_measured("CC(C)CN(C[C@@H](O)[C@H](Cc1ccccc1)NC(=O)O[C@H]1CO[C@H]2OCC(F)(F)[C@H]21)S(=O)(=O)c1ccc(N)cc1")
-1.01
>>> value_measured("CC(C)CN(C[C@@H](O)[C@H](Cc1ccccc1)NC(=O)O[C@H]1CO[C@H]2OCC[C@H]21)S(=O)(=O)c1ccc(N)cc1")
-1.03

----------
Test system: Human immunodeficiency virus 1
assay-procedure: Antiviral activity against HIV1 T21055 infected in human MT4 cells expressing LTR and EGFP assessed as inhibition of virus-induced cytopathic effect by fluorescence microscopic analysis
Assay type: functional, organism-based
measurement-context: Human immunodeficiency virus 1, T21055, MT4
endpoint: EC50 (nM)

>>> value_measured("Cc1cccc(C)c1OCC(=O)N[C@@H](Cc1ccccc1)[C@@H](O)C[C@H](Cc1ccccc1)NC(=O)[C@H](C(C)C)N1CCCNC1=O")
426
>>> value_measured("CC(C)CN(C[C@@H](O)[C@H](Cc1ccccc1)NC(=O)O[C@H]1CO[C@H]2OCC[C@H]21)S(=O)(=O)c1ccc2sc(NC3CCN(C4CCCC4)CC3)nc2c1")
308
>>> value_measured("CC(C)CN(C[C@@H](O)[C@H](Cc1ccccc1)NC(=O)O[C@H]1CO[C@H]2OCC[C@H]21)S(=O)(=O)c1ccc(N)cc1")
122

src = ChEMBL document CHEMBL5252512
